Molecular target: 20S catalytic subunit of the proteasome (multicatalytic proteinase complex) (Bos taurus, UniProt Q32KL2)
Construct: was purified to homogeneity from bovine brain according to published methods; from tissue; host or cells: bovine brain
Experiment: 20S proteasome chymotryptic activity, fluorogenic peptide cleavage
Format: biochemical, bovine
Conditions: 50 μM succinyl-leu-leu-val-tyr-7-amino-4-methyl coumarin, 15 minutes at 37° C, pH7.5
Some molecules, each annotated with its measured IC50.

| molecule | endpoint_result |
| --- | --- |
| COc1ccc2c(c1)C(CC(=O)NC(CC(C)C)C(=O)NC(CC(C)C)C(=O)NC(C)C(N)=O)CC2=O (mixture of isomers) [Compound 126] | > 10 µg/mL |
| CCCCC(NC(=O)CC1CC(=O)c2ccc(OC)cc21)C(=O)NC(CC(C)C)C(N)=O (mixture of isomers) [Compound 15] | > 10 µg/mL |

Given item COc1ccc2c(c1)C(CC(=O)NC(C)C(=O)NC(CC(C)C)C(N)=O)CC2=O (mixture of isomers) , the value recorded as its IC50 is > 10 µg/mL
